Please go through the items and note down their pIC50.
- targetOfAssay: UniProtKB Q15858
- measurementProtocol: Nav1.7 (hSCN9A) channel block, PatchXpress (PX) whole-cell electrophysiology in stably transfected HEK cells
- conditionDescription: estimated IC50 from single point electrophysiology data; PatchXpress platform; HEK cells expressing hSCN9A; clamped at V1/2 of inactivation; read-out: Nav1.7 EIC50
// returns pIC50 (minus log10 of molar concentration), number only

Need pIC50, item COCCOCCOCCOCCOCCOCCOCCOCCOCCOCCOCCOCCNCc1cc(-c2cc(-c3cccc(C(F)(F)F)c3)ccc2Oc2ccc(S(=O)(=O)Nc3ncns3)cc2C#N)ccn1
8.64

Need pIC50, item N#Cc1cc(S(=O)(=O)Nc2ncns2)ccc1Oc1ccc(-c2ccccc2)cc1-c1cccc(C(=O)NCCN2CCNCC2)c1
9.00

Need pIC50, item CC(=O)N1CCC(CCNCc2cc(-c3cc(-c4cccc(C(F)(F)F)c4)ccc3Oc3ccc(S(=O)(=O)Nc4ncns4)cc3C#N)ccn2)CC1
8.24

----------
- targetOfAssay: Nav1.7 (or SCN9A) channel (Homo sapiens, UniProt Q15858)
- Sequence (Q15858 whole entry): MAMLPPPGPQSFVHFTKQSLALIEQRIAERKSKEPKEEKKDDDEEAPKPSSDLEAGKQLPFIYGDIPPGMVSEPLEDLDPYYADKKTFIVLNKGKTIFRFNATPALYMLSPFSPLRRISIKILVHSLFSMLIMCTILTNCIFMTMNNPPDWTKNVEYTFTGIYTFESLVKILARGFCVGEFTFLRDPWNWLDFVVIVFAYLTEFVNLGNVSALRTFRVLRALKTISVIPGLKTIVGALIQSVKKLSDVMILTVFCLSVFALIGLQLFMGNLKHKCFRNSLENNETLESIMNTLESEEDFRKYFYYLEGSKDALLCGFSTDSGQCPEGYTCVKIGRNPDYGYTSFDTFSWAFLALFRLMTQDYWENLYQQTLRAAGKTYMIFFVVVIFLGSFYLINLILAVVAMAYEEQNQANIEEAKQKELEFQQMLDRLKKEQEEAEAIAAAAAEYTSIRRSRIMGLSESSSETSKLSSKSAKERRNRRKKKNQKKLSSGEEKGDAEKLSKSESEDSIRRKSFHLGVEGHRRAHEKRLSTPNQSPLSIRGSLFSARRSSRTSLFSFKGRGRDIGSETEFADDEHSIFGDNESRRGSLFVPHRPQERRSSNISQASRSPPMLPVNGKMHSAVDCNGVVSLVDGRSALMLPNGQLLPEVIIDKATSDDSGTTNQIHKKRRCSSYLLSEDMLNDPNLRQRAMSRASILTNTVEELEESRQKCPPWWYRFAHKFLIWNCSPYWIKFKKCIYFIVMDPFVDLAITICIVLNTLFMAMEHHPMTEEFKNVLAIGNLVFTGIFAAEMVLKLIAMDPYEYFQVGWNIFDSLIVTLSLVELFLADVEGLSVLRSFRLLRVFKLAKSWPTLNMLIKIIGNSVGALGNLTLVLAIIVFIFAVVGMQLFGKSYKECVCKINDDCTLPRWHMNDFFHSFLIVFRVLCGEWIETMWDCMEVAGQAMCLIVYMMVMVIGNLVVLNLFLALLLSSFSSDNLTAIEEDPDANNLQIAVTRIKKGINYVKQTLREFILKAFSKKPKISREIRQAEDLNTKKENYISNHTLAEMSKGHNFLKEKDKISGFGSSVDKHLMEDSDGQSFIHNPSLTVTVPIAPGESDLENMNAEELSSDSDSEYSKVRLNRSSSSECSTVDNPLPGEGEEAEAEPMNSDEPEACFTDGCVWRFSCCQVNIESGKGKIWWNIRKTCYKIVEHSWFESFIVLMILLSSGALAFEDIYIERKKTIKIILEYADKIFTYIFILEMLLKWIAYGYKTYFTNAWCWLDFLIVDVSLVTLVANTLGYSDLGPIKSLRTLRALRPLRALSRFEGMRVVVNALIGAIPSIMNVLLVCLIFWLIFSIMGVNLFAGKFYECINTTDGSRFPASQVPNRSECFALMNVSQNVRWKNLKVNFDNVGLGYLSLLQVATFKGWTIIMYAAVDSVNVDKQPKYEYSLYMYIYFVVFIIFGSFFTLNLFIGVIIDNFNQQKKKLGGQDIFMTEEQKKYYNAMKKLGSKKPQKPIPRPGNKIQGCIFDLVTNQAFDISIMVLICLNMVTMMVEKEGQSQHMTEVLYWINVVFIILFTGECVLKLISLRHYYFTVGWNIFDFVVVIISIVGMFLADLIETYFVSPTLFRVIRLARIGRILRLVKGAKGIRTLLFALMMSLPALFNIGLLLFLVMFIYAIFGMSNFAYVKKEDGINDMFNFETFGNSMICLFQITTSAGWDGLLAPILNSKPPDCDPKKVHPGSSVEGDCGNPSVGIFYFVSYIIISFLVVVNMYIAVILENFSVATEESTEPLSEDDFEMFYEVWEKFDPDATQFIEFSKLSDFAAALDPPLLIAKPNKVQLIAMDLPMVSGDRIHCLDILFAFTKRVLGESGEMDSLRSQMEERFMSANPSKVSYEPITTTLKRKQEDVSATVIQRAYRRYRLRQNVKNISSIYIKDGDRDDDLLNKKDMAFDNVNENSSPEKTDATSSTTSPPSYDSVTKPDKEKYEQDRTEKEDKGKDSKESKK
- measurementProtocol: Nav1.7 (hSCN9A) channel block, PatchXpress (PX) whole-cell electrophysiology in stably transfected HEK cells
- conditionDescription: estimated IC50 from single point electrophysiology data; PatchXpress platform; HEK cells expressing hSCN9A; clamped at V1/2 of inactivation; read-out: Nav1.7 EIC50
Structures can show the parent of a compound that is named as a salt.
Please go through the items and note down their IC50.
Give just the numeric value; nM need not be written.

Need IC50, item COCCOCCOCCOCCNCc1cc(-c2cc(-c3cccc(C(F)(F)F)c3)ccc2Oc2ccc(S(=O)(=O)Nc3ncns3)cc2C#N)ccn1
1

Need IC50, item NCc1cc(-c2cc(-c3cccc(C(F)(F)F)c3)ccc2Oc2cc(F)c(S(=O)(=O)Nc3nncs3)cc2Cl)ccn1 [Example 7, bis-formate salt]
1.5

Need IC50, item COCCOCCOCCOCCNC(=O)COCc1cc(-c2cc(-c3cccc(C(F)(F)F)c3)ccc2Oc2ccc(S(=O)(=O)Nc3ncns3)cc2C#N)ccn1
5

Need IC50, item COCCOCCOCCOCCOCCOCCOCCOCCOCCOCCOCCOCCC(=O)NCc1cc(-c2cc(-c3cccc(C(F)(F)F)c3)ccc2Oc2ccc(S(=O)(=O)Nc3ncns3)cc2C#N)ccn1
17.5

Need IC50, item COCCOCCOCCOCCOC1CN(Cc2cc(-c3cc(-c4cccc(C(F)(F)F)c4)ccc3Oc3ccc(S(=O)(=O)Nc4ncns4)cc3C#N)ccn2)C1 [Example 20, hemi trifluoroacetate salt]
1

Need IC50, item CC(=O)N1CCC(CCNCc2cccc(-c3cc(-c4ccccc4)ccc3Oc3ccc(S(=O)(=O)Nc4ncns4)cc3C#N)c2)CC1
0.9

Data origin, for the record: patent US20170275275A1
